Examples of compounds with documented pIC50 follow.
Target: human LPA1 (Homo sapiens, UniProt Q92633)
Construct: expressed in transfected cells; host or cells: CHO-K1
Sequence (Q92633 whole entry): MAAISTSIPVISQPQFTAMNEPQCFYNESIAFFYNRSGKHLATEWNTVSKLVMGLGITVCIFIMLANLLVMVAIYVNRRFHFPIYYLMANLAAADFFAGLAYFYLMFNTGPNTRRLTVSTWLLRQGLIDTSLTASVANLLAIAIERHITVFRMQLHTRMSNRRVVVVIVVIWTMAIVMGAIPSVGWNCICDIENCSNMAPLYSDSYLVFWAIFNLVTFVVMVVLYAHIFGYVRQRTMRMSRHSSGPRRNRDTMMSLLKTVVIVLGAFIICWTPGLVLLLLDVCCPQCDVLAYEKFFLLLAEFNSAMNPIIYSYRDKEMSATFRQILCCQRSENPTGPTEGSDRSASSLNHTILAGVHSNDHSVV
Assay: In vitro LPA1 calcium flux antagonist assay - Bioduro protocol
Assay type: cell-based
Details: CHO-K1 cells overexpressing human LPA1 and G15a; LPA challenge at EC80; calcium mobilization on FLIPR Tetra; read-out: IC50
pIC50: −log10 of the molar value.

Compound: COc1cc(-c2ccc(NC3(C(=O)O)CCNCC3)cc2COC2CCCC2)cc(OC)c1C
Test readout: pIC50
Result: < 5.00

Compound: COc1cc(OC)cc(-c2ccc(NC3(C(=O)O)CCOCC3)cc2COC2COc3ccccc32)c1 (single isomer, unassigned) [Compound 159]
Test readout: pIC50
Result: < 5.00

Now take the following compound into account.
Recorded pIC50 for COc1cc(OC)cc(-c2ccc(NC3(C(=O)O)CCOCC3)cc2CO[C@H]2CCC[C@H]2NC(C)=O)c1 , please?
< 5.00
